Biological target: hERG (Homo sapiens)
Construct: purchased Invitrogen PV5365
Sequence (Q12809 whole entry): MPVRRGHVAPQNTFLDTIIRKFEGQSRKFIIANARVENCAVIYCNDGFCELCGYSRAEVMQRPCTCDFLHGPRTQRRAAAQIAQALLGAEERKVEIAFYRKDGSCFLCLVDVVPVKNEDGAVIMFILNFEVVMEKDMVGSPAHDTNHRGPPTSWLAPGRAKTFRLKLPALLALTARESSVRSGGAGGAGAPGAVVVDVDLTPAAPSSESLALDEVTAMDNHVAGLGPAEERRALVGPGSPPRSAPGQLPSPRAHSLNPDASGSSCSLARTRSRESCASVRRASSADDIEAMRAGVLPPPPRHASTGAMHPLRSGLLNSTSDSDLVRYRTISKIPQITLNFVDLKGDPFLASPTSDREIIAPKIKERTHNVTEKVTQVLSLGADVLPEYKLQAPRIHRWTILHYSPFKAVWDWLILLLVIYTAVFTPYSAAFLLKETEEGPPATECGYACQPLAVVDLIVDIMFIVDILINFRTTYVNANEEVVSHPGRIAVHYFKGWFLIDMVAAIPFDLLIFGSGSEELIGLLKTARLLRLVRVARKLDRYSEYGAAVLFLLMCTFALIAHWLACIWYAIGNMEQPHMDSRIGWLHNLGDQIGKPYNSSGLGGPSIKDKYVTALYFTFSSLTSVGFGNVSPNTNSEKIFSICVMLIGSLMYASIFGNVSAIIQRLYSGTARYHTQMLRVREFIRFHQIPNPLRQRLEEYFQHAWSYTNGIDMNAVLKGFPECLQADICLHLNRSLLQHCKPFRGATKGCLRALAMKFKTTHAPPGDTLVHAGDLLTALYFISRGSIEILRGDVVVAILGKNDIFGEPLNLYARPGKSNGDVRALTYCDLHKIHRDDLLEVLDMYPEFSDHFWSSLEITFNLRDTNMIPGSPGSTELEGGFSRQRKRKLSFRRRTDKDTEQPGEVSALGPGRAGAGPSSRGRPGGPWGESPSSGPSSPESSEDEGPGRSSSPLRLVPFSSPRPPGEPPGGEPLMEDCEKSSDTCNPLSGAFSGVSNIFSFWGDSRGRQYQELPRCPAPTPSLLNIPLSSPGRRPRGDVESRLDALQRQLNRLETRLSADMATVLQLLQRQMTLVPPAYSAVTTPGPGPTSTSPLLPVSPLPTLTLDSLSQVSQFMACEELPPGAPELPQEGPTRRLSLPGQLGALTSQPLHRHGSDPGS
Experiment: hERG inhibition test (Predictor hERG Fluorescence Polarization assay kit)
Assay type: binding
Conditions: probe kit Tracer (fluorescent hERG ligand), hERG % inhibition at 10 uM, relative to E-4031 and solvent control
Description: To measure the hERG (Human ether-a-go-go-related gene) channel inhibition rate of the compound according to the present invention, the following test was performed using a Predictor hERG Fluorescence Polarization assay kit (Invitrogen, PV5365). Specifically, a test substance was dissolved in DMSO to prepare a 50 mM solution. […]
value.kind: inhibition at 2.5 h, 10 µM (%)
Give bare numbers, in %.

• Cc1cc(Cc2nc3ccc(C(=O)O)cc3n2Cc2ccco2)ccc1-c1cccc(OCc2ccc(C#N)cc2F)c1 [Example 29] = -0.75
• N#Cc1ccc(COc2cccc(-c3ccc(Cc4nc5ccc(C(=O)O)cc5n4CC4CCCO4)c(F)c3)c2)c(F)c1 (stereo not drawn) [Example 14] = -6.08
• O=C(O)c1ccc2nc(Cc3ccc(-c4cccc(OCc5ccccc5)n4)cc3F)n(CC3CCCO3)c2c1 (stereo not drawn) [Example 83] = 2.37
• O=C(O)c1ccc2nc(Cc3ccc(-c4cccc(OCc5ccc(Cl)cc5F)c4)c(F)c3)n(C[C@H]3CCCO3)c2c1 [Example 42] = -23.6
• O=C(O)c1ccc2nc(Cc3ccc(-c4cccc(OCc5ccc([N+](=O)[O-])cc5)n4)c(F)c3)n(C[C@@H]3CCO3)c2c1 [Example 124] = 7.28

Now let's try a different one.
Give the measured inhibition at 2.5 h, 10 µM of N#Cc1ccc(COc2cccc(-c3ccn(Cc4nc5ccc(C(=O)O)cc5n4C[C@@H]4CCO4)c(=O)c3)n2)c(F)c1 [Example 111] .
1.32
